Values compiled from PubChem BioAssay (NCI).

- Test system: 786-0 renal
- Protocol summary: NCI tumour cell line growth inhibition, 48 h

Molecule	TGI
CC(=O)c1ccc(-c2oc(-c3ccccc3)cc2-c2ccc3c(c2)OCO3)s1	> 100 µM
COc1ccccc1/C=C/C(=O)c1sc(-c2cccnc2)nc1C	> 100 µM
Nc1ccccc1NC(=O)c1ccc(CSc2nc(N3CCOCC3)c3cccn3n2)cc1	5.48 µM
COC(=O)CCc1ccc2c(c1)CCC2	> 100 µM
O=C(O)C1C2C=CC(O2)C1C(=O)Nc1ccccc1 (centres undefined)	> 100 µM
CS(=O)(=O)c1nc(N)nc2nc[nH]c12	> 100 µM
O=C1CCC(=O)N1CNc1ccc2c(c1)Sc1ccccc1O2	58.9 µM
CC(N)Cc1cccc(C(F)(F)F)c1 (centres undefined)	> 100 µM
CC(=O)CC(=O)N(CCN(C(=O)CC(C)=O)c1ccccc1)c1ccccc1	> 100 µM
CCN1C(=O)N(CC)C2C1NN=c1s/c(=C3\C(=O)N(CCC(C)C)c4ccccc43)c(=O)n12 (centres undefined)	4.5 µM
C/C(=C\c1ccn(-c2ccc(N)c(C(F)(F)F)c2)n1)[C@@H]1C[C@@H]2O[C@]2(C)CCC[C@H](C)[C@H](O)[C@@H](C)C(=O)C(C)(C)[C@@H](O)CC(=O)O1	12.1 µM
COC(=O)C1=CC(O)CCC1c1ccc(OC)cc1 (centres undefined)	> 100 µM
COC(=O)c1ccccc1C1CN=NC12Cc1c(C)cc(C)cc1C2=O (centres undefined)	> 100 µM
O=C(O)c1ccc(Nc2ccnc3cc(Cl)ccc23)cc1O	> 100 µM
